The reported measurements were obtained from BindingDB's records for doi:10.1021/jm060253o.

Assay: Antiproliferative activity against MDR human HL60R cell line
pIC50: −log10 of the molar value.
VALUE TYPE: pIC50

Oc1ccc(-c2cccc(-c3cc(O)cc(O)c3)c2)cc1 [[1,1';3',1'']-terphenyl-4,3'',5''-triol]	4.24
COc1cc(OC)cc(-c2ccc(-c3ccc(O)cc3)cc2)c1	4.64
COc1cc(OC)cc(-c2ccc3cc(O)ccc3c2)c1 [6-(3,5-dimethoxy-phenyl)-naphthalen-2-ol]	4.80
Oc1ccc(-c2ccccc2-c2cc(O)cc(O)c2)cc1 [[1,1';2',1'']-terphenyl-4,3'',5''-triol]	4.92

###

Assay: Antiproliferative activity against MDR human HL60R cell line
VALUE TYPE: IC50 (µM)

COc1cc(/C=C/c2ccc(O)cc2)cc(OC)c1	42
COc1ccc(-c2cccc(-c3cc(OC)cc(OC)c3)c2)cc1	80
COc1cc(/C=C/c2ccccc2O)cc(OC)c1	68
